These entries and their values trace back to the supplement of paper PMC4466140.

MEASUREMENT TARGET: CaMyo5
PROTOCOL DETAILS: SPOT peptide array binding signal intensity (averaged, normalized) (arbitrary units (background-subtracted, floor 0; scale differs between SH3 domains)); higher = stronger binding of the SH3 domain to the peptide
REPORTED ENDPOINT: SPOT peptide array binding signal intensity

Record RSLRKRPTSPSISGS . Reported SPOT peptide array binding signal intensity: 6

Record MSPLGAPPPPPHKDH . Reported SPOT peptide array binding signal intensity: 46.5

Record SLSRRRFSLPSMPNV . Reported SPOT peptide array binding signal intensity: 14.5

Record NLKKRPPTAPQRKIS . Reported SPOT peptide array binding signal intensity: 4.5

Record ATNVPVAPPPPPASL . Reported SPOT peptide array binding signal intensity: 13.8

Record TPRLSLPRLPNKHHW . Reported SPOT peptide array binding signal intensity: ≤ 0

Record KNRKNLPTIPIRLSG . Reported SPOT peptide array binding signal intensity: ≤ 0

Record PLRRTVMSLPGNHDI . Reported SPOT peptide array binding signal intensity: 19.6

Record LYKRKPILLPDPKPL . Reported SPOT peptide array binding signal intensity: ≤ 0

Record LRIKRKPVQTFFEFI . Reported SPOT peptide array binding signal intensity: 14

Record LTRRFPFLFPFDTRM . Reported SPOT peptide array binding signal intensity: 13.8

Record ATKSASPTLPTRRSR . Reported SPOT peptide array binding signal intensity: 6

Record RPKRRAPPPVPKKPS . Reported SPOT peptide array binding signal intensity: 2.5

Record RRRDFGAPANKRPRR . Reported SPOT peptide array binding signal intensity: 2.25

Record EAEEAAPQLPSRSSA . Reported SPOT peptide array binding signal intensity: 1
